Form field: log p (one value per entry).
test: log P (HPLC/MS data of the preparation examples); conditions: HPLC (LC-MS) method [b]: pH 2.7, 0.1% formic acid in water and acetonitrile, linear gradient 10% to 95% acetonitrile; EEC directive 79/831 Annex V.A8

Please review the entries below; each comes with its answer.
CC(C)CC(=O)Nc1nc(CON=C(c2ncc(C(F)(F)F)cc2Cl)c2ncnn2C)cs1 = 3.19^[b]
Cn1cncc1C(=NOCc1cccc(N)n1)c1ccsc1 (single isomer, unassigned) [Example 418] = 0.39^[b]
Cn1cncc1C(=NOCc1cccc(NC(=O)C(C)(C)C)n1)c1cccs1 = 1.7^[b]

// recorded log p for CCCCCOC(=O)Nc1ccnc(CON=C(c2ncc(C(F)(F)F)cc2Cl)c2ncnn2C)n1 : 3.8^[b]

// recorded log p for CCCCCOC(=O)Nc1nc(CON=C(c2ccsc2)c2cncn2C)cs1 (single isomer, unassigned) [Example 461] : 2.22^[b]

// recorded log p for Cn1cncc1C(=NOCc1csc(N)n1)c1cccs1 : 0.22^[b]

###

assay: log P (HPLC/MS data of the preparation examples); settings: LC-MS, method [b]: pH 2.7 with 0.1% formic acid in water and acetonitrile, linear gradient 10% to 95% acetonitrile
Form field: log p (one value per entry).

CC(C)CC(=O)Nc1ccnc(CON=C(c2cccs2)c2ncnn2C)n1 [Example 410] = 2.56^[b]

// recorded log p for CC(=O)Nc1ccnc(CON=C(c2ccccc2)c2nccn2C)n1 [Example 62] : 1.13^[b]

// recorded log p for CCCCCC(=O)Nc1cccc(CON=C(c2ccccc2)c2ocnc2C)n1 (single isomer, unassigned) [Example 323] : 3.67^[b]

// recorded log p for CCCCCCCOC(=O)Nc1cccc(CON=C(c2ccccc2)c2ncnn2C)n1 [Example 106] : 4.86^[b]

###

Form field: log p (one value per entry).
experiment: log P (HPLC/MS data of the preparation examples); settings: LC-MS, method [b]: pH 2.7 with 0.1% formic acid in water and acetonitrile, linear gradient 10% to 95% acetonitrile

Please review the entries below; each comes with its answer.
Cn1cncc1C(=NOCc1nccc(N)n1)c1ccccc1 = 0.01^[b]
CCCCCOC(=O)Nc1cccc(CON=C(c2cccs2)c2nccn2C)n1 = 2.71^[b]

// recorded log p for CC(C)C(=O)Nc1ccnc(CON=C(c2ccccc2)c2cncn2C)n1 : 1.49^[b]

###

Form field: log p (one value per entry).
assay: log P (HPLC/MS data of the preparation examples); conditions: method [b]: LC-MS at pH 2.7, 0.1% formic acid in water / acetonitrile, linear gradient 10% to 95% acetonitrile

Please review the entries below; each comes with its answer.
Cn1c(C(=NOCc2cccc(NC(=O)c3cccs3)n2)c2ccccc2)nnc1C(F)(F)F [Example 204] = 3.48^[b]
Cc1nnsc1C(=NOCc1cccc(NC(=O)CCC2CCCC2)n1)c1ccccc1 [Example 221] = 5^[b]
Cc1nnsc1C(=NOCc1cccc(NC(=O)CC(C)C)n1)c1ccccc1 [Example 218] = 3.96^[b]
COCCC(=O)Nc1cccc(CON=C(c2cccc(F)c2)c2nccn2C)n1 [Example 277] = 1.69^[b]
CC(C)COC(=O)Nc1cccc(CON=C(c2ccccc2)c2nc(C(F)(F)F)nn2C)n1 [Example 180] = 4.78^[b]
CCCCCOC(=O)Nc1cccc(CON=C(c2ccccc2)c2nnc(C(F)(F)F)n2C)n1 [Example 197] = 4.49^[b]

// recorded log p for Cc1nc(C(=NOCc2cccc(N)n2)c2ccccc2)cs1 (single isomer, unassigned) [Example 169] : 1.7^[b]

// recorded log p for CCCCCOC(=O)Nc1cccc(CON=C(c2ccccc2)c2nn(C)c(=O)n2C)n1 [Example 146] : 3.8^[b]

// recorded log p for Cn1cnnc1C(=NOCc1cccc(NC(=O)C(C)(C)C)n1)c1ccccc1 [Example 167] : 2.44^[b]

// recorded log p for Cc1nc(C(=NOCc2cccc(NC(=O)Cc3ccccc3)n2)c2ccccc2)cs1 (single isomer, unassigned) [Example 173] : 3.61^[b]

// recorded log p for CCCCC(=O)Nc1cccc(CON=C(c2ccccc2)c2cncn2C)n1 [Example 258] : 1.82^[b]

// recorded log p for CC(C(=O)Nc1cccc(CON=C(c2ccccc2)c2ncnn2C)n1)c1ccccc1 (centres unmarked) [Example 240] : 3.42^[b]

// recorded log p for CCOc1ccc(C(=O)Nc2cccc(CON=C(c3ccccc3)c3nnc(C(F)(F)F)n3C)n2)cc1 [Example 205] : 3.94^[b]

// recorded log p for CCCCCOC(=O)Nc1cccc(CON=C(c2ccccc2)c2csc(C)n2)n1 [Example 195] : 4.92^[b]

// recorded log p for CCCCCOC(=O)Nc1cccc(CON=C(c2ccccc2)c2cncn2C)n1 [Example 253] : 2.39^[b]

// recorded log p for CCC(C)CC(=O)Nc1cccc(CON=C(c2ccccc2)c2nccn2C)n1 (centres unmarked) [Example 262] : 2.54^[b]

// recorded log p for CCCc1ccc(C(=O)Nc2cccc(CON=C(c3ccccc3)c3ncnn3C)n2)cc1 [Example 261] : 4.24^[b]
